Measured Emax by item
Target: mGPR65 (Mus musculus, UniProt Q61038)
Construct: expressed in transfected cells; host or cells: HeLa (ATCC CCL-2), lentiviral transduction, pLX317
Sequence (Q61038 whole entry): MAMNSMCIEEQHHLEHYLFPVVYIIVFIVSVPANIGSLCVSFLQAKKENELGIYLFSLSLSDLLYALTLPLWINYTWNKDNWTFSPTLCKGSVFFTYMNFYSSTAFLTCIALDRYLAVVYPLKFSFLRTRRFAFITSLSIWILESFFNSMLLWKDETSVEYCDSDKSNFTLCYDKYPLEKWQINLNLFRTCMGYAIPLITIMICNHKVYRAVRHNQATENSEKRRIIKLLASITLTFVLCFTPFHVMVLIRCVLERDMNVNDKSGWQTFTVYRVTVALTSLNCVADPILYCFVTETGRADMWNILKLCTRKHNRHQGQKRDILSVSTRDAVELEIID
Test: cAMP detection in HeLa expression cell line, mGPR65
Type: cell-based
Details: HeLa, first pair; relative to 100uM forskolin (100%) and DMSO (0%); read-out: mGPR Max Activity %
Value expressed in %; do not type the unit.

Solved cases (3 shown):
INSERT INTO measurements (recordsmiles, targetortestsystem, u, obsvalue) VALUES
  ('Cc1ccc(NC(=O)c2cnn3c(O)cc(-c4ccc(-c5ccc(O)cc5)cc4)nc23)cc1', 'mGPR65 (Mus musculus, UniProt Q61038)', '%', 30.5),
  ('Cc1ccc(NC(=O)c2cnn3c(O)cc(-c4ccc(N5CCCN(C)CC5)cc4)nc23)cc1', 'mGPR65 (Mus musculus, UniProt Q61038)', '%', 65.4),
  ('Cc1ccc(NC(=O)c2cnn3c(O)cc(-c4ccc(-c5ccc(C(C)C)cc5)cc4)nc23)cc1', 'mGPR65 (Mus musculus, UniProt Q61038)', '%', 12.4);

Now turn to the next molecule.
## Input Could you tell me which Emax is on file for Cc1ccc(NC(=O)c2cnn3c(O)cc(Cc4ccc5ccccc5c4)nc23)cc1 ?
## Output 11.6

----------
Biological target: mGPR65 (Mus musculus)
Construct: expressed in transfected cells; host or cells: HeLa (ATCC CCL-2), lentiviral transduction, pLX317
Assay: cAMP detection in HeLa expression cell line, mGPR65
Format: cell-based
Conditions: mGPR EC50 (uM), 2nd mGPR column pair; NA = no activity
observable: EC50
The reply should consist of the numeric value with the unit placed after it.

## Input Could you tell me which EC50 is on file for Cc1ccc(NC(=O)c2cnn3c(O)cc(-c4ccc(COC(C)C)cc4)nc23)cc1 [BRD5928] ?
## Output 0.494 µM

## Input Could you tell me which EC50 is on file for Cc1ccc(NC(=O)c2cnn3c(O)cc(-c4ccc(COC(C)C)c(Cl)c4)nc23)cc1 [BRD5059] ?
## Output 0.379 µM

## Input Could you tell me which EC50 is on file for Cc1ccc(NC(=O)c2cnn3c(O)cc(-c4ccc(COC(C)C)cc4)nc23)nc1 [BRD5075] ?
## Output 0.952 µM

## Input Could you tell me which EC50 is on file for COCc1ccc(-c2cc(O)n3ncc(C(=O)Nc4ccc(C(C)C)cc4)c3n2)cc1 [BRD2166] ?
## Output 0.347 µM

----------
Test system: GFP-expressing HeLa cells
Assay: cAMP detection in HeLa expression cell line, GFP control
Assay type: cell-based, human
Conditions: Homo sapiens, HeLa, 1st GFP column pair; relative to 100uM forskolin (100%) and DMSO (0%); NA = no activity; read-out: GFP Max Activity %
observable: Emax (%)
Value expressed in %; do not type the unit.

## Input Could you tell me which Emax is on file for COc1ncccc1-c1cc(O)n2ncc(C(=O)Nc3ccc(Cl)cc3)c2n1 [BRD8007] ?
## Output 6.72

## Input Could you tell me which Emax is on file for CN1N=C(SCc2ccc(Cl)cc2Cl)Sc2c1cnn(C)c2=O [BTB09089, reference compound] ?
## Output 1.95

## Input Could you tell me which Emax is on file for Cc1ccc(NC(=O)c2cnn3c(O)cc(-c4cnc(N5CCN(C)CC5)c(Cl)c4)nc23)cc1 [BRD5069] ?
## Output 2.17

## Input Could you tell me which Emax is on file for O=C(O)c1cnn2c(O)cc(-c3ccccc3)nc12 [BRD3374] ?
## Output 4.66

## Input Could you tell me which Emax is on file for Cc1ccc(NC(=O)c2cnn3c(O)cc(-c4ccc(C(=O)N(C)C)cc4)nc23)cc1 [BRD5084] ?
## Output 5.15
